test system: SF-295 CNS; assay: NCI-60 one-dose screen, 48 h (100 = growth as untreated, 0 = no growth, -100 = all killed); settings: 10 µM unless noted
Compounds without any hit were thinned out: in the full panel of roughly 83,000, 20% have a hit.

SMILES_ENTRY	UNIT_ABBREV	growth
O=C(N/N=C\c1cc(Br)ccc1O)c1ccncc1	%	55.7
COc1ccc2[nH]cc(C3(c4c[nH]c5ccc(OC)cc45)C(=O)Nc4ccc(F)cc43)c2c1	%	56.7
CN1C2CCC1/C(=C\c1ccc(F)cc1)C(=O)/C2=C/c1ccc(F)cc1	%	72

====

# Lookup of reported growth keyed by entry
tested on: OVCAR-4 ovarian; test: NCI-60 one-dose screen, 48 h (100 = growth as untreated, 0 = no growth, -100 = all killed); details: 10 µM unless noted
About 83,000 compounds went through this panel and 20% of them were active in at least one assay; those are over-represented in the sample as a whole. Calls of active or inactive are those of the source. The calls were made as follows: active = growth percent below 10; inactive = the rest.

COMPOUND	TEST_SYSTEM	growth
CCN1C(=O)N(CC)C2C1NN=c1s/c(=C\c3ccco3)c(=O)n12 (stereo unspecified)	OVCAR-4 ovarian	63.3% (inactive)
CCN(CC)C(=O)O/N=C(/C)c1ccccc1	OVCAR-4 ovarian	80.7% (inactive)
COc1cccc(/C=N\Nc2ccc([N+](=O)[O-])cn2)c1O	OVCAR-4 ovarian	29.5% (inactive)
CC(C)c1nc2ccccc2n1CC(=O)N/N=C/c1cccc(O)c1	OVCAR-4 ovarian	104% (inactive)
CN1C2CCC1/C(=C\c1ccc(F)cc1)C(=O)/C2=C/c1ccc(F)cc1	OVCAR-4 ovarian	39.1% (inactive)
COc1cc(/C=N/NC(=O)Cn2c(-c3ccc(C)o3)nc3ccccc32)ccc1OCc1ccccc1	OVCAR-4 ovarian	90% (inactive)
C=C1C[C@@]2(C)C(CC[C@]3(C)C2CC=C2C4CC(C)(C)C[C@@H](OC(=O)/C(C)=C\C)[C@]4(C(=O)O)CC[C@]23C)C(C)(C)C1=O (stereo partly specified)	OVCAR-4 ovarian	39.4% (inactive)
CCN(CC)CC(=O)Nc1c(C)ccc(N)c1C	OVCAR-4 ovarian	99.1% (inactive)
CSc1ccc(/C=C2\C=C(CC(=O)NCc3ccc(C(=O)c4ccccc4)cc3)c3cc(F)ccc32)cc1	OVCAR-4 ovarian	10.9% (inactive)
CCOC(=O)c1ccc2c(c1)nc(-c1ccc(Cl)cc1)n2-c1cc(C(C)(C)C)[nH]n1	OVCAR-4 ovarian	63.5% (inactive)
COc1ccc(-n2c(COc3ccc(F)cc3)n[nH]c2=S)cc1	OVCAR-4 ovarian	105% (inactive)
CCc1onc(-c2ccc(OC)cc2)c1-c1ccccc1OCCN(CC)CC	OVCAR-4 ovarian	90.8% (inactive)
Cc1cc2nc(CN)[nH]c2cc1C	OVCAR-4 ovarian	112% (inactive)
CC(C)CC(=O)C(CCc1ccccn1)C(C)C (stereo unspecified)	OVCAR-4 ovarian	111% (inactive)
COc1cc(CN(c2ccc(C)cc2)C2OC(=O)c3ccccc32)cc(OC)c1OC (stereo unspecified)	OVCAR-4 ovarian	65.9% (inactive)
CCOC(=O)c1cc(N)nc2ccccc12	OVCAR-4 ovarian	109% (inactive)

Origin of measurements: PubChem BioAssay (NCI)
